Source listed as patent US6653300B2.

readoutKind: melting point

In the examples that follow, each entry is paired with its recorded melting point.
Entry "Cc1cc(Nc2nc(Oc3ccc4ccccc4c3)nc3ccccc23)n[nH]1" has what melting point?
> 300 °C

Endpoint output: melting point of "c1ccc2cc(Sc3nc(Nc4cc(C5CC5)[nH]n4)cc(N4CCOCC4)n3)ccc2c1" . Value?
118 to 120 °C

Item under review: "Cc1cc(Nc2nc(Nc3ccc4c(c3)OCCO4)nc3ccccc23)n[nH]1" . Reported melting point?
> 250 °C

Query (molecule): "CC(=O)Nc1ccc(Sc2nc(Nc3cc(C)[nH]n3)c3cccc(OCCCN4CCOCC4)c3n2)cc1" ; field requested: melting point
262 to 264 °C

Further cases:
Give its melting point value. Item: "Cc1cc(Nc2nc(Sc3cccc(Br)c3)nc3ccccc23)n[nH]1"
280 to 281 °C

Which melting point is reported for this molecule? "COc1cccc2c(Nc3cc(C4CC4)[nH]n3)nc(Sc3ccc(NC(C)=O)cc3)nc12"
265 to 268 °C

What melting point value was documented for this molecule, "Cc1cc(Nc2cc(-c3ccccc3)nc(Sc3ccc(NC(=O)C(C)C)cc3)n2)n[nH]1" ?
201 to 202 °C

I'd like to know its melting point. The molecule in question is "CC(=O)Nc1ccc(Sc2nc(Nc3cc(C)[nH]n3)cc(-c3cccc(NC(C)=O)c3)n2)cc1"
227 to 230 °C

Which melting point is reported for this molecule? "OCCc1ccc(Nc2nc(Nc3cc(C4CC4)[nH]n3)c3ccccc3n2)cc1"
255 to 256 °C
